# maps each entry to its Ki
# targetSystem: NIK (Homo sapiens)
# Construct: Both assays utilize a truncated form of NIK containing only the catalytic domain; made in house; host or cells: baculovirus expression system (insect cells implied)
# assayComment: homogenous time resolved fluorescence (HTRF) assay for NIK Ki measurement
# Type: biochemical
# testSettings: truncated NIK (catalytic domain only), autophosphorylation; 10 nM enzyme; 20, 100, 200 or 500 μM ATP; room temperature, 2 hours; read-out: Ki activity in the homogenous time resolved fluorescence (HTRF) assay for NIK

A selection of reference data follows.
CNc1ncc2c(n1)-c1c(nc3ccc(C#CC4(O)CCCC4)cn13)CCC2 [Example 251] : 1 to 30 µM
CC(O)(C#Cc1ccc2c(c1)N(c1nc(N)ncc1Cl)CC2(C)C)c1ncco1 (centres unmarked) [Example 305] : < 1 µM

Item under review: CC(O)(C#Cc1ccc2c(c1)N(c1nc(N)ncc1Cl)CC2)c1ncc(C#N)s1 (centres unmarked) [Example 34] . Reported Ki?
< 1 µM

Suppose we examine the compound COCCOc1cnc(N)nc1-c1cn(C)c2ccc(C#CC3(O)CCCC3)cc12 [Example 233] ; what Ki value has been reported?
< 1 µM

I would be grateful if you could share the reported Ki for Cc1cc([C@@](C)(O)C#Cc2ccc3c(c2)N(c2nc(N)ncc2Cl)CC3)on1 (single isomer, unassigned) [Example 28] .
1 to 30 µM

Query (compound): Nc1ncc(Cl)c(N2CC(CO)(CO)c3ccc(C#CC4(O)CCCC4)cc32)n1 [Example 62] ; field requested: Ki
< 1 µM

Would you kindly share the measured Ki for Cc1cc([C@@](C)(O)C#Cc2ccc3c(c2)N(c2nc(N)ncc2Cl)CC32CCOCC2)no1 (single isomer, unassigned) [Example 211a] ?
1 to 30 µM

State the recorded Ki for this entry: Cc1nc(C(C)(O)C#Cc2ccc3c(c2)N(c2nc(N)ncc2Cl)CC3)no1 (centres unmarked) [Example 2]
< 1 µM

---

# targetSystem: NIK (Homo sapiens, UniProt Q99558)
# Construct: Both assays utilize a truncated form of NIK containing only the catalytic domain; made in house; host or cells: baculovirus expression system (insect cells implied)
# Sequence (Q99558 400-655 limits assumed): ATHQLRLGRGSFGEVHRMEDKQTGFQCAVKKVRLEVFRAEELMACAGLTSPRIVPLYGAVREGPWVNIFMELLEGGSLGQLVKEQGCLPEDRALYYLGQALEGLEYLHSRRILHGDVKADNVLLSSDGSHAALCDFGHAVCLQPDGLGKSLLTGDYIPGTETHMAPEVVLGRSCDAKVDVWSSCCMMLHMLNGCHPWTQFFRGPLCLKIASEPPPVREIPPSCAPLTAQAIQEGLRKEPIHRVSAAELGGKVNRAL
# assayComment: homogenous time resolved fluorescence (HTRF) assay for NIK Ki measurement
# Assay type: biochemical
# testSettings: truncated NIK (catalytic domain only), autophosphorylation; 10 nM enzyme; 20, 100, 200 or 500 μM ATP; room temperature, 2 hours; read-out: Ki activity in the homogenous time resolved fluorescence (HTRF) assay for NIK
pKi: −log10 of the molar value.
quantityMeasured: pKi

Nc1ncc(F)c(N2CCc3ccc(C#CC4(O)CCCC4)cc32)n1 : > 6.00
Cc1csc(C(C)(O)C#Cc2ccc3c(c2)N(c2ccnc(N)n2)CC3)c1 (centres unmarked) : > 6.00
CC1(CCC#N)CN(c2nc(N)ncc2F)c2cc(C#CC3(O)CCCC3)ccc21 (centres unmarked) : > 6.00
Nc1ncc(OCCN2CCOCC2)c(-c2c[nH]c3ccc(C#CC4(O)CCCC4)cc23)n1 : 4.52 to 6.00
C[C@@](O)(C#Cc1ccc2c(c1)N(c1ncncc1Cl)CC21CCOCC1)c1nccs1 : > 6.00

Fill in the blank: the reported pKi of CC(O)(C#Cc1ccc2c(c1)N(c1nc(N)ncc1Cl)CC21CCCC1)c1nccs1 (centres unmarked) is ____.
> 6.00

Reported pKi, compound C[C@@](O)(C#Cc1ccc2c(c1)N(c1nc(N)ncc1Cl)CC21CS(=O)(=O)C1)c1nccs1 : ____
> 6.00

Return reported pKi; argument: C[C@@](O)(C#Cc1ccc2ncc(-c3nc(N)ncc3Cl)n2c1)c1nccs1
> 6.00

Any idea what its pKi is? The compound is Nc1nccc(-n2ccc3c(O)cc(C#CC4(O)CCCC4)cc32)n1
> 6.00

I have this compound here, CN1CCC2(CC1)CN(c1nc(N)ncc1F)c1cc(C#CC3(O)CCCC3)ccc12 , and I need its recorded pKi.
> 6.00

What value of pKi has been reported for the following compound? C[C@](O)(C#Cc1ccc2c(c1)N(c1nc(N)ncc1Cl)CC21CCOC1)c1nccs1 (single isomer, unassigned)
4.52 to 6.00

Reported pKi, compound Cc1cnc(C(C)(O)C#Cc2ccc3c(c2)N(c2ccnc(N)n2)CC3)s1 (centres unmarked) : ____
> 6.00

I have this compound here, Cc1cnc(C(C)(O)C#Cc2ccc3c(c2)N(c2ccncc2)CC3(C)C)s1 (centres unmarked) , and I need its recorded pKi.
> 6.00

Look up pKi for this compound: CN1CC[C@]2(C1)CN(c1nc(N)ncc1Cl)c1cc(C#C[C@@](C)(O)c3nccs3)ccc12 (relative stereo)
> 6.00

# get_value(readout='pKi', item= COCCOc1cnc(N)nc1-c1cn(CCOC)c2ccc(C#CC3(O)CCCC3)cc12 )
> 6.00

Any idea what its pKi is? The compound is C[C@@](O)(C#Cc1ccc2c(c1)N(c1nc(N)ncc1Cl)CC21COC1)c1nccs1 (single isomer, unassigned)
> 6.00

Would you mind telling me what pKi value was observed for CC(O)(C#Cc1ccc2c(c1)N(c1nc(N)ncc1Cl)CC21CCS(=O)(=O)CC1)c1nccs1 (racemic) ?
> 6.00
